tested on: 817829-284-R-J1-PDC complex spheroid viability; experiment: Anticancer human tumor 817829-284-R-J1-PDC patient-derived colon adenocarcinoma cell line growth inhibition [POLQ]; settings: second compound 0.1 µM; first compound 0.316 µM; active compounds read low;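 also: spheroids exposed to compounds for 7 days; 100% = DMSO vehicle-treated spheroids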
ATTRIBUTE_MEASURED: viability, T/C (%)
Field format: number, assumed %, no unit text.

Value lookup for viability, T/C; key = CCc1c2c(nc3ccc(O)cc13)-c1cc3c(c(=O)n1C2)COC(=O)[C@]3(O)CC + Nc1ccc(C#CCN(C(=O)Cc2ncc(C(F)(F)F)cc2C(F)(F)F)c2ccc(F)cc2)nn1
4.76

Value lookup for viability, T/C; key = COc1cccc2c1C(=O)c1c(O)c3c(c(O)c1C2=O)CC(O)(C(=O)CO)CC3OC1CC(N)C(O)C(C)O1 (stereo not drawn) + Cc1cccc(N(C)C(=O)C2C(O)CCN2c2nc(C)cc(C(F)(F)F)c2C#N)c1
7.06

Value lookup for viability, T/C; key = CCc1c2c(nc3ccc(O)cc13)-c1cc3c(c(=O)n1C2)COC(=O)[C@]3(O)CC + Cc1cccc(N(C)C(=O)C2C(O)CCN2c2nc(C)cc(C(F)(F)F)c2C#N)c1
5.27
